Assay: pharmacokinetics after single oral (gavage) and intravenous dose in 0.9% saline (Example 2)
Design: species or system cynomolgus monkeys
Settings: male, cynomolgus monkey, in vivo, po, 15 mg/kg, Plasma Concentrations, Mean
Quantity: concentration at 8 h (µg/mL)

{"Smiles representation": "CN(C)c1cc(NC(=O)CNC(C)(C)C)c(O)c2c1C[C@H]1C[C@H]3[C@H](N(C)C)C(O)=C(C(N)=O)C(=O)[C@@]3(O)C(O)=C1C2=O", "Recorded number": 0}

====

Assay: pharmacokinetics after single oral (gavage) and intravenous dose in 0.9% saline (Example 2)
Set-up: species or system cynomolgus monkeys
Conditions: male, cynomolgus monkey, in vivo, po, 15 mg/kg, Plasma Concentrations
Quantity: concentration at 12 hr

{"Compound": "CN(C)c1cc(NC(=O)CNC(C)(C)C)c(O)c2c1C[C@H]1C[C@H]3[C@H](N(C)C)C(O)=C(C(N)=O)C(=O)[C@@]3(O)C(O)=C1C2=O [Tigecycline]", "Result": "< 100 ng/mL"}

These data points were gathered from patent US20070243244A1.
